B1: KRT33B (parent)
chain: PAVDLNQVLNETRNQYEALVETNR

Variants of: B1
Assay: protein stability index of a GFP-peptide fusion (GPS, HEK-293T) (PSI 1-6); higher = more stable;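 also: lentivirally expressed fusions sorted by FACS into six bins by GFP to DsRed ratio, PSI derived from sequencing read proportions per bin multiplied by bin number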
Conditions: c terminus: a fixed tail appended
The reader will find reported protein stability index values listed item by item below.
Format: numeric value only, no unit, no commentary.

mutant_designation=E11R endpoint_name="protein stability index" value=4.02
mutant_designation=L5M endpoint_name="protein stability index" value=4

# next variant below
So what does the record say about protein stability index for "A2H" ?
3.93
